- Tested on: M14
- PROCEDURE_SUMMARY: NCI tumour cell line growth inhibition, 48 h
Active and inactive are the calls of the source. Rule as the data show it: active = GI50 up to about 1.1 µM and inactive = higher.
GI50 values, listed per item

{"MOLECULE": "CP(C)C.[Ag][I]", "OBSERVATION_TYPE": "GI50", "MEAS_VALUE": "> 100 µM (inactive)"}
{"MOLECULE": "Clc1ccc(-c2cn3c(nc4ccccc43)c(-c3ccccc3)n2)cc1", "OBSERVATION_TYPE": "GI50", "MEAS_VALUE": "28.3 µM (inactive)"}
{"MOLECULE": "COC1(OC)C=CC2C1C1C=CC2C1(OC)OC (stereo unspecified)", "OBSERVATION_TYPE": "GI50", "MEAS_VALUE": "> 100 µM (inactive)"}

Please report GI50 for the following molecule: O=C(O)CCC1C(=O)C2CCN1CC2 (stereo unspecified)
> 100 µM (inactive)

Please report GI50 for the following molecule: CN(C)CC1CCCC/C1=N/O (stereo unspecified)
> 100 µM (inactive)

Please report GI50 for the following molecule: `NC(C(=O)OC(=O)c1ccccc1)C(=O)OC(=O)c1ccccc1`
> 100 µM (inactive)

Please report GI50 for the following molecule: `CCOC(=O)C1=C(NC(C)(C)C)OC/C1=N\NC(=O)Cc1ccccc1`
> 100 µM (inactive)

Please report GI50 for the following molecule: `COC/C=C\[C@]1(O)CCCC[C@@H]1CC(OC)OC`
> 100 µM (inactive)

Please report GI50 for the following molecule: CC(C(=O)n1ccnc1)N1c2ccccc2Sc2ccccc21 (stereo unspecified)
77.3 µM (inactive)

Please report GI50 for the following molecule: CCN1CC2=C(N=c3s/c(=C\c4ccc(Cl)cc4)c(=O)n3C2c2ccc(Cl)cc2)/C(=C/c2ccc(Cl)cc2)C1 (stereo unspecified)
73.1 µM (inactive)

Please report GI50 for the following molecule: `NC(=S)NNC(=S)NC(=O)c1ccco1`
> 10 µM (inactive)

====

- Test system: A498
- PROCEDURE_SUMMARY: NCI tumour cell line growth inhibition, 48 h
Activity calls are given as the source filed them. No stated cut-off is given here; in the data, active = GI50 up to about 1.1 µM and inactive = higher.
GI50 values, listed per item

{"COMPOUND": "CN(/N=C/c1ccnc2ccccc12)c1c([N+](=O)[O-])cc([N+](=O)[O-])cc1[N+](=O)[O-]", "GI50": "48.8 µM (inactive)"}

Please report GI50 for the following compound: `O=C(O)c1c[nH]c2c(ccc3ncccc32)c1=O`
> 100 µM (inactive)

Please report GI50 for the following compound: `O=C1c2ccc3c4ccccc4n(Cc4ccccc4)c3c2C(=O)N1c1ccccc1`
25.1 µM (inactive)

Please report GI50 for the following compound: `C=CCNC1=C2C[C@@H](C)C[C@@H](OC)[C@H](OC(=O)CCN)[C@H](C)/C=C(\C)[C@@H](OC(N)=O)[C@H](OC)/C=C\C=C(/C)C(=O)NC(=CC1=O)C2=O`
3.61 µM (inactive)

Please report GI50 for the following compound: `c1ccc(-c2cc(-c3cc(-c4ccccc4)n(-c4ccccc4)n3)nn2-c2ccccc2)cc1`
> 100 µM (inactive)

Please report GI50 for the following compound: COc1cccc(C2=NC(C(C)C)CO2)c1OC (centres undefined)
> 100 µM (inactive)

Please report GI50 for the following compound: O=C1CC2(CCC(O)(c3ccc4ccccc4c3)C(C(=O)c3ccc4ccccc4c3)C2)C(=O)c2ccccc2N1 (centres undefined)
> 100 µM (inactive)

Please report GI50 for the following compound: Fc1ccc(C(OCCN2CC3CC2CN3CCCc2ccccc2)c2ccc(F)cc2)cc1 (centres undefined)
4.98 µM (inactive)

Please report GI50 for the following compound: CC(C)CC1c2[nH]c3ccccc3c2C[C@H]2C(=O)NC(COC(C)(C)C)C(=O)N12 (some centres undefined)
30.3 µM (inactive)
